Molecular target: Transcriptional activator protein LasR (Pseudomonas aeruginosa (strain ATCC 15692 / PAO1 / 1C / PRS 101 / LMG12228)) (UniProt P25084)
Sequence (P25084 whole entry): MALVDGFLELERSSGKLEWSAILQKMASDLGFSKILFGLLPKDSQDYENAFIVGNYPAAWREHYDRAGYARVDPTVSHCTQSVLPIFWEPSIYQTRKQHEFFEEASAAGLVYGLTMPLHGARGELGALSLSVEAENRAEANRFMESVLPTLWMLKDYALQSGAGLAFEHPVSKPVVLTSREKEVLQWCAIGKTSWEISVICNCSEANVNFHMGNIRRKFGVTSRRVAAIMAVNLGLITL
Test: Induction of lasR-mediated quorum sensing in Pseudomonas aeruginosa PAKR02 harboring lasB::luxCDABE gene assessed as lasR-induction ratio at 10^-4 M after 24 hrs by bioluminescence assay relative to control
observable: Ratio
Please give the numeric answer without any surrounding text.

Use the examples below as a reference point.
>  <compound>
CCCCCCCCN(C)C(=O)CC(=O)N[C@H]1CCOC1=O

>  <Ratio>
0.91

$$$$
>  <compound>
CCCCCCCCNC(=O)CC(=O)N[C@@H]1CCC[C@@H]1O

>  <Ratio>
0.96

$$$$
>  <compound>
CCCCCCCCNC(=O)CC(=O)NC1CCCCCC1

>  <Ratio>
0.9

$$$$
>  <compound>
CCCCCCCCCCCNC(=O)CC(=O)N[C@H]1CCOC1=O

>  <Ratio>
0.72

$$$$
>  <compound>
CCCCCCCCCC(=O)CC(=O)N[C@H]1CCC(=O)NC1=O

>  <Ratio>
1.03

$$$$

Field request: Ratio | item: CCCCCCCCCC(CC(=O)N[C@H]1CCOC1=O)OC(C)=O (mixture of isomers)
1.13

Now this one: CCOCCOCCNC(=O)CC(=O)N[C@H]1CCOC1=O
1.02
